# EXPERIMENTAL_TARGET: Fibroblast growth factor 22 (Homo sapiens) (UniProt Q9HCT0)
# Sequence (Q9HCT0 whole entry, looked up): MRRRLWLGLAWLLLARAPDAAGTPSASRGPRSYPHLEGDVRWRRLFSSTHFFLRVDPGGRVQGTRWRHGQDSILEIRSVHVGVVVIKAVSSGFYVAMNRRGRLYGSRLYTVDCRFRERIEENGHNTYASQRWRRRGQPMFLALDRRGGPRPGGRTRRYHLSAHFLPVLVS
# ASSAY_NAME: FGF22 ligand-induced thermal stabilization – biophysical, thermal shift, cherry-pick, FGF22 synaptogenesis inhibitor project, dose response (AID 687022)
# EXPERIMENTAL_PARAMETERS: recombinant FGF22 thermal shift, SYPRO orange melting
Active and inactive are the calls of the source.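 Rule for the calls: active = Fitted curve of melting temperature shift crosses the 1.0 threshold at or below the sample's highest valid tested concentration; inconclusive = Flat fit with activity 30 to 70, or invalid fit; inactive = Opposite direction, flat within 30, or no crossing.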
Classes used: active, inactive

>  <MOLECULE>
CCC(=O)Nc1nc(C)c(-c2csc(Nc3ccccn3)n2)s1

>  <LABEL_VALUE>
active

$$$$
>  <MOLECULE>
COc1ccc(-c2cn(CC[C@H]3CC[C@H](NC(=O)Nc4ccc(F)cc4)[C@@H](CO)O3)nn2)cc1

>  <LABEL_VALUE>
active

$$$$
>  <MOLECULE>
C[C@H]1CN([C@@H](C)CO)S(=O)(=O)c2ccc(-c3cccc(F)c3)cc2O[C@H]1CN(C)C(=O)Nc1cc(F)ccc1F

>  <LABEL_VALUE>
active

$$$$
>  <MOLECULE>
COc1ccccc1NC(=O)c1ccc(NC(=O)c2ccc(=O)[nH]c2)cc1

>  <LABEL_VALUE>
active

$$$$
>  <MOLECULE>
CO[C@@H](CN(C)S(=O)(=O)c1cccc(Cl)c1)[C@@H](C)CN([C@@H](C)CO)S(=O)(=O)c1cccc(Cl)c1

>  <LABEL_VALUE>
active

$$$$
>  <MOLECULE>
O=C(NCC1CC1)c1onc(CSc2ccc(F)cc2)c1C(=O)NCC1CC1

>  <LABEL_VALUE>
active

$$$$
>  <MOLECULE>
CC1(C(=O)NS(=O)(=O)Cc2cccc(Cl)c2)CCN1C(=O)C1(c2ccc(Cl)cc2)CCC1 (stereo not drawn)

>  <LABEL_VALUE>
inactive

$$$$
>  <MOLECULE>
C[C@@H]1CN([C@H](C)CO)S(=O)(=O)c2ccc(-c3ccncc3)cc2O[C@@H]1CN(C)C(=O)Nc1ccc(C(F)(F)F)cc1

>  <LABEL_VALUE>
active

$$$$
